These measurements were taken from ChEMBL document CHEMBL1132940.

# target-desc: GABA-A receptor; alpha-1/beta-3/gamma-2 (Homo sapiens, UniProt P14867+P18507+P28472)
# Sequence (P14867 whole entry): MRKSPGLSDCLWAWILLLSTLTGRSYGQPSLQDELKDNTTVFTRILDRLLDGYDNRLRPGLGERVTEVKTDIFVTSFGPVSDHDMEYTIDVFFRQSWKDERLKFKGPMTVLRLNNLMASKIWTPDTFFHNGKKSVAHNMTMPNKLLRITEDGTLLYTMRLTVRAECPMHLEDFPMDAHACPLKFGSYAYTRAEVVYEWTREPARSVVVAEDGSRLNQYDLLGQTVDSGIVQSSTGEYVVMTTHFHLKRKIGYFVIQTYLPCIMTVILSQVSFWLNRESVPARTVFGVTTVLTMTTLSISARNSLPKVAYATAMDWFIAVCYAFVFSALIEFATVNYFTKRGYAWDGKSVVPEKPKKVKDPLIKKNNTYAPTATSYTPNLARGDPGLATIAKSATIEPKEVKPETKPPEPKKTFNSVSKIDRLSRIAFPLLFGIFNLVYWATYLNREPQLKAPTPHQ
# Sequence (P18507 whole entry): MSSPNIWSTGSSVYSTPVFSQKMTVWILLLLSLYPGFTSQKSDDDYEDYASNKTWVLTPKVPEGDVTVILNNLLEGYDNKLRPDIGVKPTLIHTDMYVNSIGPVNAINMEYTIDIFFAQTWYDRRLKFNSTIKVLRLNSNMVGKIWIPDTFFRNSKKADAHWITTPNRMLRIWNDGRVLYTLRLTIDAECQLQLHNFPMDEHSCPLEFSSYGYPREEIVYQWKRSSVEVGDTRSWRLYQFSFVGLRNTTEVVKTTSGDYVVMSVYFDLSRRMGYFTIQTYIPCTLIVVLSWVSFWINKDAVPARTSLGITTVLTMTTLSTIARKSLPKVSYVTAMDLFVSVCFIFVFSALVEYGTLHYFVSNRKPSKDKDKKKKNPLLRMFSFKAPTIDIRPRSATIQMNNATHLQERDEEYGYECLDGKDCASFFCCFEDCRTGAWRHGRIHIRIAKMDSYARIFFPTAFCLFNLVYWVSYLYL
# Sequence (P28472 whole entry): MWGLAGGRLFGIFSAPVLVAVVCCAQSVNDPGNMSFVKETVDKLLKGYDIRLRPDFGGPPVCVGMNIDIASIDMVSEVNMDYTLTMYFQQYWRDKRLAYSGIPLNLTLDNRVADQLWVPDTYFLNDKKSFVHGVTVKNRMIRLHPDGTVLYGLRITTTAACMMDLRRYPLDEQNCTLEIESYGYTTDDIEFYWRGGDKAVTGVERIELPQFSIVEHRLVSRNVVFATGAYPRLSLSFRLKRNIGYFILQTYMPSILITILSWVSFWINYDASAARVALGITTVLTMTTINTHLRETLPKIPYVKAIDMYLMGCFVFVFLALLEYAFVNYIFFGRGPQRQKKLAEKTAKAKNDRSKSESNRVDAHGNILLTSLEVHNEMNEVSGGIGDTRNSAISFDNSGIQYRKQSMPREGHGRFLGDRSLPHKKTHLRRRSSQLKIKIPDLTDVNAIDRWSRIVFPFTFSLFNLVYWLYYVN
# assay-name: Binding affinity for human recombinant gamma-aminobutyric-acid (GABA) A receptor alpha-1-beta-3-gamma-2
# Type: protein-complex assay
Listed here: items and their measured Ki.
observable: Ki (nM)

mol-smiles | target-desc | observable | value-units | qualifying-sign | measurement
CCOC(=O)c1cc2c3cc(OCc4ccccc4)ccc3nc-2c[nH]1 | GABA-A receptor; alpha-1/beta-3/gamma-2 (Homo sapiens, UniProt P14867+P18507+P28472) | Ki | nM | = | 7.2
CN1C(=O)CN=C(c2ccco2)c2cc(Cl)ccc21 | GABA-A receptor; alpha-1/beta-3/gamma-2 (Homo sapiens, UniProt P14867+P18507+P28472) | Ki | nM | > | 0.23
CN1C(=O)CN=C(c2ccccc2)c2cc(Br)ccc21 | GABA-A receptor; alpha-1/beta-3/gamma-2 (Homo sapiens, UniProt P14867+P18507+P28472) | Ki | nM | = | 9.4
N#CSc1ccc2[nH]c3cnc(SC#N)cc3c2c1 | GABA-A receptor; alpha-1/beta-3/gamma-2 (Homo sapiens, UniProt P14867+P18507+P28472) | Ki | nM | = | 13.6
